# Tested on: DU-145
# measurement-protocol: NCI tumour cell line growth inhibition, 48 h
Calls of active or inactive are those of the source. No stated cut-off is given here; in the data, active = GI50 up to about 1.1 µM and inactive = higher.
Please go through the items and note down their GI50.

Consider the molecule "O=c1cn[nH]c(=S)n1/N=C/c1c[nH]c2ccccc12" and give its measured GI50.
> 100 µM (inactive)

Which GI50 reading was recorded for the molecule "CCCN(CCC)C(=O)c1c(N2CCN(C)CC2)c2cccnc2n2c(C)cnc12" ?
> 100 µM (inactive)

Record request: GI50 value, item [O-][S+](Nc1ccccc1)c1ccc(Cl)cc1 (stereo not drawn)
91.4 µM (inactive)

// returns reported GI50 for input O=C(O)C1=NN(c2ccc(S(=O)(=O)O)cc2)C2(C1)SCC(=O)N2c1nc2ccccc2s1 (stereo not drawn)
> 100 µM (inactive)

So what does the record say about GI50 for CN(C(=O)C12C3(C(=O)O)C4C5(C(=O)O)C3C1(C(=O)O)C5C42C(=O)O)C(C)(C)C (stereo not drawn) ?
> 100 µM (inactive)

Recorded GI50 for "COc1ccc2c(C(=O)c3c(C)n(CCN4CCOCC4)c4ccccc34)cccc2c1" , please?
38 µM (inactive)

Fill in: GI50 of O=C1CC(c2ccco2)C2(C(=O)NC(=O)NC2=O)C(c2ccco2)C1 (stereo not drawn) is ___
> 75 µM (inactive)

Report GI50 for "CC(=NNC(=S)Nc1ccccc1)c1cccc(C(C)=NNC(=S)Nc2ccccc2)n1" please.
> 20.1 µM (inactive)

Entry "S=C(Nc1ccccc1)c1ccc(CN2CCCCC2)s1" has what GI50?
60.1 µM (inactive)

Which GI50 is listed for "COc1ccc(/N=C2/C(=N/c3ccc(OC)cc3)N(c3ccccc3)C(=S)N2N=C=C2Sc3ccccc3N2C)cc1" ?
> 100 µM (inactive)

Give its GI50 value. Item: "O=S(=O)(Nc1nc2ccccc2nc1Nc1cccc2ccccc12)c1ccccc1"
> 100 µM (inactive)

Entry "O=C1C(Cl)=C(N2CCN(CCOCCO)CC2)C(=O)c2c(O)ccc(O)c21" has what GI50?
1.82 µM (inactive)

# query: GI50 of entry "O=C(O)CSCC(=O)Nc1ccc2cccc3c2c1CC3"
> 100 µM (inactive)

Recorded GI50 of "c1ccc2c(Cc3c[nH]c4ccccc34)c[nH]c2c1" , please.
18.2 µM (inactive)

Request the reported GI50 associated with "c1ccc2[nH]c(-c3cscn3)nc2c1"
> 100 µM (inactive)

Consider the molecule CC(O)C(NC(=O)C(CS)NC(=O)C(CO)NC(=O)C(CCCCN)NC(=O)C(Cc1c[nH]c2ccccc12)NC(=O)C(Cc1ccc(O)cc1)NC(=O)C(CS)NC(=O)C(N)Cc1ccccc1)C(N)=O (stereo not drawn) and give its measured GI50.
> 25 µM (inactive)

Dear colleague, I am looking for the recorded GI50 of the following molecule: CC(C)=CC1C(COC(=O)c2cc3c(cc2Cl)OCO3)C1(C)C (stereo not drawn)
28.4 µM (inactive)

// lookup GI50 for O=C1CCCCCCCCCCC1CCCCCBr (stereo not drawn)
28.7 µM (inactive)
